FYI, the data here is from patent US9994881B2.

test: thioesterase activity (production of TNB at 412 nm); type: biochemical; details: crude cell extract; 200 μM substrate; expressed from pCA24N
Simple rule here: Specific activities of selected thioesterases on RS-3-Hydroxybutyryl-CoA less than 0.02 μmol/mg protein/min is condition met, otherwise condition not met.

{"Molecule": "TesB: E. coli thioesterase II (protein, UniProt P0AGG2 2-286, looked up) Acyl-CoA thioesterase 2: SQALKNLLTLLNLEKIEEGLFRGQSEDLGLRQVFGGQVVGQALYAAKETVPEERLVHSFHSYFLRPGDSKKPIIYDVETLRDGNSFSARRVAAIQNGKPIFYMTASFQAPEAGFEHQKTMPSAPAPDGLPSETQIAQSLAHLLPPVLKDKFICDRPLEVRPVEFHNPLKGHVAEPHRQVWIRANGSVPDDLRVHQYLLGYASDLNFLPVALQPHGIGFLEPGIQIATIDHSMWFHRPFNLNEWLLYSVESTSASSARGFVRGEFYTQDGVLVASTVQEGVMRNHN", "Group": "condition not met"}
{"Molecule": "YciA: E. coli acyl-CoA thioesterase (protein, UniProt P0A8Z0 1-132, looked up) Acyl-CoA thioester hydrolase …: MSTTHNVPQGDLVLRTLAMPADTNANGDIFGGWLMSQMDIGGAILAKEIAHGRVVTVRVEGMTFLRPVAVGDVVCCYARCVQKGTTSVSINIEVWVKKVASEPIGQRYKATEALFKYVAVDPEGKPRALPVE", "Group": "condition not met"}
{"Molecule": "YbgC: E. coli Acyl-CoA thioesterase (protein, UniProt P0A8Z3 1-134, looked up) Acyl-CoA thioester hydrolase …: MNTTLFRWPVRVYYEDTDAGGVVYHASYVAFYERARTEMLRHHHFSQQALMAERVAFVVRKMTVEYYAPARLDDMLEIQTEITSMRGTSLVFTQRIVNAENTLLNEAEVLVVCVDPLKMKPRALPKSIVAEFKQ", "Group": "condition met"}
{"Molecule": "FadM: E. coli long-chain acyl-CoA thioesterase (protein, UniProt P77712 1-132, looked up) Long-chain acyl-CoA …: MQTQIKVRGYHLDVYQHVNNARYLEFLEEARWDGLENSDSFQWMTAHNIAFVVVNININYRRPAVLSDLLTITSQLQQLNGKSGILSQVITLEPEGQVVADALITFVCIDLKTQKALALEGELREKLEQMVK", "Group": "condition met"}
{"Molecule": "YdiI: E. coli Acyl-CoA thioesterase (protein, UniProt P77781 1-136, looked up) 1,4-dihydroxy-2-naphthoyl-CoA …: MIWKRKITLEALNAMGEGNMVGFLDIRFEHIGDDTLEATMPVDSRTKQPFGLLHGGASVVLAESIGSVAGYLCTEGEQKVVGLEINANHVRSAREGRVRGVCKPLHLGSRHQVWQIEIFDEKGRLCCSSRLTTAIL", "Group": "condition met"}
